This collection of values is drawn from ChEMBL document CHEMBL1961873.

# SYSTEM_UNDER_TEST: Dual specificity protein kinase CLK2 (Homo sapiens) (UniProt P49760)
# Sequence (P49760 whole entry, looked up): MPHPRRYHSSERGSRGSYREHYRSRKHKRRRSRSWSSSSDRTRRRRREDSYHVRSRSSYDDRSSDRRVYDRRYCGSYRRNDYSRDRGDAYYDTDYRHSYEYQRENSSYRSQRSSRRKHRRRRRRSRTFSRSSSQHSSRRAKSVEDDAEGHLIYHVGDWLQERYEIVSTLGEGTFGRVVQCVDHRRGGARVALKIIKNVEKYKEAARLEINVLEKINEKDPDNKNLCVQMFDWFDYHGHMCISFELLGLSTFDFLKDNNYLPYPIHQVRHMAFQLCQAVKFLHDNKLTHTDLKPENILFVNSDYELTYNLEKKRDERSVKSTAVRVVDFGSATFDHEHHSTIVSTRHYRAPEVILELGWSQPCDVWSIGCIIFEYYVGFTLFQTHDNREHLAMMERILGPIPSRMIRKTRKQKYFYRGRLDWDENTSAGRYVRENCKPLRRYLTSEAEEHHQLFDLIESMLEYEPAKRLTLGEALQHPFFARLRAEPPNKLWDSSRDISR
# RUN_PARAMETERS: at 1 µM
Catalogue of inhibition values
State the answer as a number, implicitly in %.

Exam item: Report inhibition under test system Dual specificity protein kinase CLK2 (Homo sapiens) (UniProt P49760) for "CCn1c(-c2nonc2N)nc2cnc(Oc3cccc(NC(=O)c4ccc(N(C)C)cc4)c3)cc21" .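 Note: reported values are mean percent inhibition of CLK2.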
Marked response: 1.15

Exam item: Under Dual specificity protein kinase CLK2 (Homo sapiens) (UniProt P49760): report inhibition of "CCN(CC)S(=O)(=O)c1ccc(OC)c(Nc2ncc(-c3ccccc3)o2)c1" .
Marked response: 40.3

Exam item: GET inhibition | system: Dual specificity protein kinase CLK2 (Homo sapiens) (UniProt P49760) | item: "CCCN1CCC(c2ccc(Nc3nc(Nc4cc(F)ccc4C(N)=O)c4cc[nH]c4n3)c(OC)c2)CC1"
Marked response: 93.8

Now let's try a different one.
Exam item: Fill in inhibition for "CS(=O)(=O)CCNCc1coc(-c2ccc3ncnc(Nc4ccc(OCc5ccccc5)cc4)c3c2)c1" tested with Dual specificity protein kinase CLK2 (Homo sapiens) (UniProt P49760).
Marked response: 1.86
